experiment: In vivo P388 murine leukemia model, ip implant / ip treatment; design: species or system murine (CDF1 female mice); conditions: mouse, p388 leukemia model; ip once a day for 5 days; read-out: maximum tolerated dose
experimental.endpoint: MTD

CCC1CC23OC(=O)C(=C2O)C(=O)C2(CC)C(C=CC4C(OC5CC(O)C(NC(=O)c6[nH]c(Cl)cc6Cl)C(C)O5)C(C)CCC42)CC=CCC=CC3(C)C=C1C(=O)O (stereo not shown); 45 mg/kg

The reported numbers originate from patent US5270186A.
